testTarget: Metabotropic glutamate receptor 1 (Homo sapiens)
Sequence (Q13255 whole entry): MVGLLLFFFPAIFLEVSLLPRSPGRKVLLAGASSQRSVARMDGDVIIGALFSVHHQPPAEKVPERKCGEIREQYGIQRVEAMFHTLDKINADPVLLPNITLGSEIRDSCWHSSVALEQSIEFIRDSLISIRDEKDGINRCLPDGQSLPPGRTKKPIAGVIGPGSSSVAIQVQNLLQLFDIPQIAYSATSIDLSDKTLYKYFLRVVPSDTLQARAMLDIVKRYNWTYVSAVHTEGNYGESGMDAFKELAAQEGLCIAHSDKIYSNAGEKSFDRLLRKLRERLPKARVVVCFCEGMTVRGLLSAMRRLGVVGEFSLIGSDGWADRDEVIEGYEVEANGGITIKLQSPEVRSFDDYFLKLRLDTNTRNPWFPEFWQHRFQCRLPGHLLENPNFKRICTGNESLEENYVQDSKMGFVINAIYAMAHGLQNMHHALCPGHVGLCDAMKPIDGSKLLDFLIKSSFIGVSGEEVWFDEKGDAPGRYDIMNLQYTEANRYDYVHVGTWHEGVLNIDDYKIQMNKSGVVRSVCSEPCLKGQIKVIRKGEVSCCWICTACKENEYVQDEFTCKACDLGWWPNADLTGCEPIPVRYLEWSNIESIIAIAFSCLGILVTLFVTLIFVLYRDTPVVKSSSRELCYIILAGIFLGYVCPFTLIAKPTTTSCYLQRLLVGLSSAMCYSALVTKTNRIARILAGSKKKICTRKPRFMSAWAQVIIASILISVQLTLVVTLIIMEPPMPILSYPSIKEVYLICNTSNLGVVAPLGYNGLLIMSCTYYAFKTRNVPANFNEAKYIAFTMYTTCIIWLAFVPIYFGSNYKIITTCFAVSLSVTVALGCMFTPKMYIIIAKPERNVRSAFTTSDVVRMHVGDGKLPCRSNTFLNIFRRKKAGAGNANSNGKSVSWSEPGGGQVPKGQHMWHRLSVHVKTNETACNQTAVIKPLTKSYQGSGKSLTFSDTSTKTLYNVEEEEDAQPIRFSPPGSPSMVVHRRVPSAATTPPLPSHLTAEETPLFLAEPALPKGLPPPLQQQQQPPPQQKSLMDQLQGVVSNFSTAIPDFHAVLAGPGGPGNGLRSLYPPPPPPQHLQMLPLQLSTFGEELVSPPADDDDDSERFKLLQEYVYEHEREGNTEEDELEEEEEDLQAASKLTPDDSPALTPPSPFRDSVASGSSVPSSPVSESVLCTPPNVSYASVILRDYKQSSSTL
experiment: Inhibition of recombinant mGluR1a receptor expressed in CHO cells
Measured IC50, listed per entry for reference.

Some solved cases for reference:
[[record]]
compound = "CC(=O)NCCCCNC(=O)c1[nH]cc(C(=O)OC2CC3CCC2C3)c1C (centres undefined)"
testtarget = "Metabotropic glutamate receptor 1 (Homo sapiens)"
valuekind = "IC50"
measured = "200 nM"

[[record]]
compound = "COCCNC(=O)c1[nH]c(C)c(C(=O)OC2CC3CCC2C3)c1C (centres undefined)"
testtarget = "Metabotropic glutamate receptor 1 (Homo sapiens)"
valuekind = "IC50"
measured = "316 nM"

[[record]]
compound = "CC(=O)NCCCCNC(=O)c1[nH]c(C)c(C(=O)OC2CC3CCC2C3)c1C (centres undefined)"
testtarget = "Metabotropic glutamate receptor 1 (Homo sapiens)"
valuekind = "IC50"
measured = "1000 nM"

[[record]]
compound = "COCCNC(=O)c1[nH]cc(C(=O)NC2CC3CCC2C3)c1C (centres undefined)"
testtarget = "Metabotropic glutamate receptor 1 (Homo sapiens)"
valuekind = "IC50"
measured = "> 10000 nM"

[[record]]
compound = "CCOC(=O)c1[nH]cc(C(=O)OC2CC3CCC2C3)c1C (centres undefined)"
testtarget = "Metabotropic glutamate receptor 1 (Homo sapiens)"
valuekind = "IC50"
measured = "20 nM"


In: Bench note: what IC50 did COCCNC(=O)c1[nH]cc(C(=O)O[C@@H](C)C(C)(C)C)c1C show?
Out: 31.6 nM

In: Bench note: what IC50 did CCCOC(=O)c1[nH]cc(C(=O)O[C@@H](C)C(C)(C)C)c1C show?
Out: 3.98 nM

In: Bench note: what IC50 did COCCNC(=O)c1[nH]cc(C(=O)OC2CC3CCC2C3)c1C (centres undefined) show?
Out: 158 nM

In: Bench note: what IC50 did CCOC(=O)c1[nH]c(C)c(C(=O)OC2CC3CCC2C3)c1C (centres undefined) show?
Out: 100 nM
